Entry source: patent US8093386B2

Biological target: MMP-2 (Homo sapiens)
Construct: gift of Prof; Gillian Murphy (Oncology Department, Cambridge University, UK)
Test: In vitro fluorometric inhibition assay of MMPs: MMP-2
Type: biochemical
Details: Table III, pH 6.7
Experimental: Analysis of the In Vitro Inhibition Activity of Zinc Metalloproteinases: In Vitro Inhibition of MMMPs The human recombinant Progelatinase A (pro-MMP-2), B (pro-MMP-9), MMP-14cd and MMP-16cd, were provided by Prof. […] The inhibition activity of MMP was expressed in relative fluorescence unit (RFU). The percentage of inhibition was calculated using control reactions without inhibitor. […]
pIC50: −log10 of the molar value.

structure smiles string	assay system	pIC50
COc1ccc(Oc2ccc(S(=O)(=O)c3ccccc3CP(=O)(O)O)cc2)cc1	MMP-2 (Homo sapiens)	6.24

* * *

Target: MMP-14 (Homo sapiens, UniProt P50281)
Construct: purchased Calbiochem
Test: In vitro fluorometric inhibition assay of MMPs: MMP-14
Type: biochemical
Settings: Table II, cells marked (*)
pIC50: −log10 of the molar value.
Kindly return Yes if reported pIC50 is no lower than 5; return No if it is lower.

compound	classification
COc1ccc(-c2ccc(Sc3ccccc3CC(=O)O)cc2)cc1	Yes
COc1ccc(-c2ccc(Sc3ccccc3C(C)C(=O)NO)cc2)cc1 (centres unmarked) [Compound 56a]	Yes
COc1ccc(-c2ccc(Sc3ccccc3C(=O)O)cc2)cc1	No

* * *

Listed below: pIC50 values for each entry.
Target: MMP-2 (Homo sapiens)
Construct: gift of Prof; Gillian Murphy (Oncology Department, Cambridge University, UK)
Sequence (P08253 110-660): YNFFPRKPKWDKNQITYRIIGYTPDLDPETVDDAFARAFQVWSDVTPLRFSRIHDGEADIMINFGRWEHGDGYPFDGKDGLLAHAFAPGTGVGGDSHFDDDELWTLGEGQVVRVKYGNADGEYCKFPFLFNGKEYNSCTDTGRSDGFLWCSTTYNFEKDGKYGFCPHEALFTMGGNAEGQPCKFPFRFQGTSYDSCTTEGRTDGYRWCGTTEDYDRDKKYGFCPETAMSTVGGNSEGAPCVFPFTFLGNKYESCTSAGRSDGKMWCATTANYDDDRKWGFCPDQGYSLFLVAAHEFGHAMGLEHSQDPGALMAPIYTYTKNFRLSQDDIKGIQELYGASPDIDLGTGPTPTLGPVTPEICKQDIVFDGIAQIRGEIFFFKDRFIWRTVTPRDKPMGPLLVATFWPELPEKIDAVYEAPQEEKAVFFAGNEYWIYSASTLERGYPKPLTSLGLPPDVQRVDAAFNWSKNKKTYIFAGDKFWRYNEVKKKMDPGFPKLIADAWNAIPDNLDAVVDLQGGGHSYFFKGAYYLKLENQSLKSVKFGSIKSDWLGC
Assay: In vitro fluorometric inhibition assay of MMPs: MMP-2
Type: biochemical
Conditions: Table I, cells without (*)
pIC50: −log10 of the molar value.

molecule	pIC50
O=C(O)Cc1ccccc1Sc1ccc(-c2ccccc2)cc1	6.48
O=C1CC(c2ccccc2Sc2ccc(-c3ccccc3)cc2)C(=O)N1O (centres unmarked)	4.92
O=C(O)CCC(C(=O)O)c1ccccc1Sc1ccc(-c2ccccc2)cc1 (centres unmarked)	5.74
O=C1CC(c2ccccc2S(=O)(=O)c2ccc(-c3ccccc3)cc2)C(=O)N1O (centres unmarked)	5.15
O=C(O)CC(C(=O)O)c1ccccc1Sc1ccc(-c2ccccc2)cc1 (centres unmarked)	4.96

* * *

Biological target: TACE (ADAM17) (Homo sapiens, UniProt P78536)
Construct: purchased CalBiochem
Sequence (P78536 215-671 limits assumed): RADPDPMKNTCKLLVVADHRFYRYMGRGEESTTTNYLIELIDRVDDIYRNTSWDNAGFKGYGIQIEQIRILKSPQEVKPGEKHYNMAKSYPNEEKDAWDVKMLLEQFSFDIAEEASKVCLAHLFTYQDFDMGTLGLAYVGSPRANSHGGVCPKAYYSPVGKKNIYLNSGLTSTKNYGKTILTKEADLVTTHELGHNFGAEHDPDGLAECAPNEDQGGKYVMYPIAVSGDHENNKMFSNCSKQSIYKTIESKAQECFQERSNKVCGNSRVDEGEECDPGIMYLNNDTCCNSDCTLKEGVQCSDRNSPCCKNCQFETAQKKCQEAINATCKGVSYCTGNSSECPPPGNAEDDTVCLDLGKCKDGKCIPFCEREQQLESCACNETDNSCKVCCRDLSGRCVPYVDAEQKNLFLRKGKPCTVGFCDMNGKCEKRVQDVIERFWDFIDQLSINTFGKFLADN
Experiment: Inhibition of ADAMs: activity on TACE (ADAM17), fluorometric assay
Format: biochemical
Details: Table IV
Listed below: IC50 values for each entry.
measure: IC50 (µM)

compound	assay system	value measured
O=C(Cc1ccccc1Sc1ccc(-c2ccccc2)cc1)NO [Compound 21a]	TACE (ADAM17) (Homo sapiens, UniProt P78536)	13.4
COc1ccc(Sc2ccccc2CC(=O)NO)cc1 [Compound 21b]	TACE (ADAM17) (Homo sapiens, UniProt P78536)	10.2
COc1ccc(-c2ccc(Sc3ccccc3CC(=O)NO)cc2)cc1	TACE (ADAM17) (Homo sapiens, UniProt P78536)	46.2
